meta.source: patent US9138434B2

# Assay target: human serotonin 5-HT2B receptor (Homo sapiens)
# Construct: expressed in transfected cells; host or cells: HEK293, transient transfection (Lipofectamine 2000)
# Sequence (P41595 whole entry): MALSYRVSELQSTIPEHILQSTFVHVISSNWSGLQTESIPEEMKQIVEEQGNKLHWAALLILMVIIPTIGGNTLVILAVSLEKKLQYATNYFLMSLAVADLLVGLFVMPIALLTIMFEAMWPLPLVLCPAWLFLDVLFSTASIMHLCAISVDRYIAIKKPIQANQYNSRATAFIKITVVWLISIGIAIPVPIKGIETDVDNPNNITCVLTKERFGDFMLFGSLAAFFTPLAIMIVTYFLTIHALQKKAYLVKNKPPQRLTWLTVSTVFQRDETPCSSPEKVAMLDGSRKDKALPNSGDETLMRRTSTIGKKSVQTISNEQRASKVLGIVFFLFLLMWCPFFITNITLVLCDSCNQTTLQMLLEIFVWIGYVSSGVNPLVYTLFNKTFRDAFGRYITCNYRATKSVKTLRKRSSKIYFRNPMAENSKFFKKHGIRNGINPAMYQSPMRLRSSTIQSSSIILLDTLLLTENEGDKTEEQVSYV
# Test details: Stimulating activities on human serotonin 5-HT2B receptor, intracellular calcium in forced expression HEK293 cells
# Assay type: cell-based
# Protocol: Identification Test of Stimulating Activities on Human Serotonin 5-HT2B Receptor The PCR was performed using forward primer depicted as sequence ID No. 4, reverse primer depicted as sequence ID No. 5 and KOD-Plus-Ver.2 (TOYOBO) as template of human brain hippocampus cDNA (Clontech). The PCR product was inserted into a plasmid (pcDNA3.1/V5-His-Topo (registered mark)). […] The stimulating activities of human serotonin 5-HT2B receptor was determined by measuring of intracellular calcium concentration. […]
Quantity measured: EC50 (nM)
Give bare numbers, in nM.

*Q* Could you please provide reported EC50 for CCCN(CCC)CCc1cccc2c1CC(=O)N2 [Ropinirole, ropinirole, reference compound] ? Thanks!
*A* 2590
